# assay name: label from the status in PepcDB records
measurement name: protein production

MKAEKNLNKTLKISYKALFFSFALTLIKLLAGFLGNSTALIADSIRSFSELINELKKLLEVFIASKPEDWSHNYGHGKVATLFTGAGACILLFAGIESISLASQELLIFIQGRETEAPEILALSAASLTLVSREIIPLFSSKGKEIEGTLSGTGIYTRNAQIRSLLLSCFVTLGIGCTFLPGKNWVVTDSFIAALMSLYLLGTSGKLLYGTANELIEASLDEEDNKKIRKIINTTEGVTGSGELKTRKIGNGIAINACITVSDSLNIQEVAEIADRVENRLKTVYGEDIYALVKAEPDPGRNCSFRKKMEFSEEGRKENKGINTQDKMLA :: failed
MKIFRSIDEIREPLPSPVVTIGNFDGVHLGHREIFRRVKREAARLDGVSMVITFTPHPLKVLGLRKELRLINTYAEKELLIEASGIDCLLTIPFTAEFAAIGAERFVGEILVGRIGVKKLVIGYDYAFGRNREGDVAMLRRMGEEHGFEVEVLEQIASGETVYSSSAVRRMIAAGNVREVVSLIGRHYSVGGTVVHGRRRGKDLGFPTANLRTEKELIPAAGVYAVKVRVDDTIRDGACNIGNNPTFGNEEVTVEVHILDFDGDLYGKEIRVYFVDRVREELRYPDLNALKEGISRDVARCRELLAGVSIIEYRDYLGGDAA :: failed

---

# assay name: label from the status in PepcDB records
measurement name: protein production

MSTFQQPDPRDRPARLTVGVVGAGRVGPALAASLQLAGHRPVAVSGVSDTSVRRAAAMLPDVPLVTPAQVLERADLVLLTVPDDALPGLVEGLAETGAVRPGQLLVHTSGRYGTKVLDPARSAGALPLALHPAMTFTGTAVDVQRLAGCSFGVTAPDELRLAAEALVIEMGGEPEWIAEENRPLYHAALALGANHLVTLVAESMELLRTAGVEAPDHMLGPLLGAALDNALRSGDGALTGPVARGDAGTVAAHVAELRKHAPGTVPGYLAMARATADRALAHGLLKPELAEDLLGVLANGTEGDAG :: failed
MSHSVEAEDNKLVKTFKDIIPLTFGEEIGNSVSHGVAAFIALCALPYAAIHSFLEYGVLGAFSVSVYVISIFLMFISSTVYHAMPNQSSHKFILRIIDHSMIYVAIAGTYTPICLTLVGGWIGWSSMVVLWGITIWGILYKSLAKNVNHKLSLIMYLVMGWIGVLFLPTIIFDSSLLFMLFILFGGLAYTIGAWFYAQKNRPYFHMIWHFFIIVASVFHFVAIMYFM :: failed
MTAVGADAPKPGAPIKEPRFGFLRRTYAMLVKELIQLKRDRLTFAMIIVIPVMQLLLFGYAINTTPRHLPTAVLLQEDSDLGRSILKALENTAYFKFTREVHSVAEFDDLLLSGRVLFGVEIPRGFERAVRRGEKPAILVAADATDPVAAGSALSALGQIVQTALMHDRVGGDPANPPFEIRAHARYNPAASSRLNIVPGLVGTILTMTMLIFTALSVTREIERGTMENLLSMPITPVEVMLGKILPYVGVGFIQASLILGIGVLLFGVPLRGSLAMLALLSTLFITTNLAIGYTFSTLVQNQLQAMQASMMFFLPSILLSGFMFPFAGMPIWAQYIGECLPLTHYLRIVRAIMLKGSTLENLQYDAVALLTLMLIAMTIAVTRFRRTLD :: failed
MAHSGDNHSSEFCMLRSLSASIGADPLLVQGAGGNTSIKQAGVLWIKASGTWLKNARDDEIMVPVALAPLLDAVSHRSPAAEAAGQFTLADLNPRQLRPSIETTVHALLPQKIVVHVHCVETISIAVQANAEALLEGRLRGLDWAFVPYRRPGLPLAQAIAERLKPATNVLVLGNHGLVVAADTVAEAALLLQRVTGLLARQPRPAPPPDLDALLRLAAGSDYRLPASTAAHAVATDLASCRIAASGSLYPDHVIFLGVGSVIAGPGENAAAVVARTAAAPTSILFPGKGVLMRREANAGAEAMARCLADVVARVDGAARVNYLSPKENAELLNWDAEKYRQQLNREGATLQLEHHHHHH :: failed

---

# assay name: label from the status in PepcDB records
measurement name: protein production

MRYLADHDDLTGLHNRRALLQHLDQRLAPGQPGPVAALFLDLDRLKAINDYLGHAAGDQFIHVFAQRIGDALVGESLIARLGGDEFVLIPASPMSADAAQPLAERLRDQLKDHVAIGGEVLTRTVSIGVASGTPGQHTPSDLLRRADQAALAAKHAGGDSVAIFTLEHHHHHH :: failed
MSSFVLDKEAFVRRVKRLYTEWRAPSIGHDDALRNLDCIMSIVGVEEDVMYSKSMALQLWLLGYELTDTISVFCSDAVYFLTSKKKIEFLKQTQNITEEGFPEINLLVRDRTDKDQGNFEKLIKALQNSKKGKRLGVFAKDAYPGEFSEAWKKSLTASKFEHVDISTIIAYLMCPKDESEINNIRKASLVSMDIFNKYLKDEIMDIIDSDRKVKHNKLSDGCEAAIGEKKYTSGLDPRLLDMAYPPIIQSGGAYSLKFSAVADKNPLHFGVIVCSLGARYKSYCSNISRTFLVNPTEAMQENYTFLVSV :: failed

---

# assay name: label from the status in PepcDB records
measurement name: protein production

MGYTLAEFLAHAIALETEAAERYVELADMMEAHNNLDTATVFRDMARFSTLHGDEIKQRSRALELPKLMSWQYRWKTPPEVGDENDIHYLMTPYHALRYARDNEIRGMEYYKEAAANSADPEVKRLGADFAAEEAEHVVALDKWIEKTPRPSITWSEDADPAQCVD :: not failed
MAKTLFWLCLLLPFYAWVGYPLLLALLSLFVRPRPVQEGAPLSVSVIIAAHNEGPHIEHKLRTLLQQDYPATDLQIILASDGSSDDTVATALGVRDSRIVVLDLPRVGKAGALNAAVELARNDILVFTDADNQWSHDTLGKLLAPLSDPQVGACGGHMIIPDPGHNLSLGDSLYRHYEAWLRQAENRTGCMVSADGALLALRRELFQRIPAEVNDDFFISTCAPVAGKRIVYVEEAQVLDQGVDEAGKQYRRRLRVTVGGLQSLAQRRELMNPLRHGAYAIALISHKLIRRLAPVLLLPLLVSSLLLWNAGAFYSLALLAQVLGYGAGIMGLLDRRGRLPKVFRLAGFVLVTMAGMSMGLWQFLRGQRYALWNPQQNR :: failed
MWVYRLKGTLEALDPILPGLFDGGARGLWEREGEVWAFFPAPVDLPYEGVWEEVGDEDWLEAWRRDLKPALAPPFVVLAPWHTWEGAEIPLVIEPGMAFGTGHHETTRLALKALARHLRPGDKVLDLGTGSGVLAIAAEKLGGKALGVDIDPMVLPQAEANAKRNGVRPRFLEGSLEAALPFGPFDLLVANLYAELHAALAPRYREALVPGGRALLTGILKDRAPLVREAMAGAGFRPLEEAAEGEWVLLAYGR :: not failed
MFANKILTEKDTDQIRFSILASGSSGNATLVETGDQKILIDCGLSGKKMEGLFAQVGRDMNDLDAILITHEHSDHIKGLGVLARKYKLPIYANAKTWKAMDNMIGEVSSDQKFQFDMETVKNFGSMQVESFGVSHDAIEPMFYIFHKGNKKFVMITDTGYVSDRMKGHIAGADAYLFESNHDVEMLRMGRYPWNVKRRILGDEGHVSNEDAAIAMSEVITDQTKRIYLGHLSKDNNMKELARMSVTQTLMAEGIDVGGKLEIFDTDPDNATSIFTILEHHHHHH :: failed
MDAADCYLEGNADAVEFCPHESYANLLAASTYTLQEGDCPSRSGSVYLFDVGDVEDVGLNLIQKIDTAGVFDIRWSRGGDGGDVALAQADADGCLIVYKIDETESKGTLREVSGKRISSSMCLCLDWDPSSTSIVVGLSDGSASVVSFTDSNLETVQEWKGHDFELWTASFDLNNPNLVYTGSDDCKFSCWDIRDSPADNRVFQNSKVHTMGVCCISSNPSDPYSIFTGSYDETLRVWDTRSVSRPLNETSVSLGGGVWRIKHHPSLSGVVLAACMHNGFALAKVSDGKGEVLESYNKHHSLAYGADWYRGKDQKQSVVATCSFYDRLLRVWMPITDFSTRCS :: failed

We now examine a further sequence.
// query Fill in: protein production of MELFEFLLIKYGYIALILILTGGIVGLPIPDEVLLTLVGYYISLGKMSYVLALLASFLGATLGISISYFLGTKLGLPFLMKYGPKFHISHQKIDHAQALFRKYGPILLFIGYFLPGVRHVTGYLSGLSKCKFRTFSLYAYTGAFIWCLVFITLGHEIGNKWYIVEKYLFKSSFLLFLLILCVIGYFIVRNKRMEKNAEKK is ___
// result failed

---

# assay name: label from the status in PepcDB records
measurement name: protein production

MISKFIEKRMLNMLDEWYSAMSKRKMNHVCTLKEKIDQHLPKIKKNTKLWMRYQLFQARHQLLFENQNGLDSLFDGLYGLEDKMDDELKYYLYFFSGLYEMVKTAPKHAVHHFKKAEQYLAAIHNTFEAADLYYQTAGAYYLMKSPPLSVQYVKKALHIYLHQFGYIKKVITCKLLLAVNYIDQERYEKAEQLFKEIIKKTQQLHDENLLCHAYYNLGFLKATEKKDQEALLYFRKVLKNQEFEMNSPVSYLHCVYESVRALFKTGNITEAKAVLQKGKELSEKVDIQTIYLKLKTLEALYTSAEDPYEQLLEYVLELEKIEAWVDLEVLLEDITEYYKKKDDFEKAAFFIMRG :: failed
MRQTFIARKISFISLIHFRDEYMSPQNNHLQRPPAAVLYADELAKLKQNDNAPCPPGWQLSLPAARAFILGDEAQNISRKVVISPSAVERMLVTLATGRGLMLVGEPGTAKSLLSELLATAISGDAGLTIQGGASTTEDQIKYGWNYALLINHGPSTEALVPAPLYQGMRDGKIVRFEEITRTPLEVQDCLLGMLSDRVMTGPELTGEASQLYAREGFNIIATANTRDRGVNEMSAALKRRFDFETVFPIMDFAQELELVASASARLLAHSGIPHKVPDAVLELLVRTFRDLRANGEKKTSMDTLTAIMSTAEAVNVAHAVGVRAWFLANRAGEPADLVECIAGTIVKDNEEDRARLRRYFEQRVATHKEAHWQAYYQARHRLP :: failed
AFAVLTTAGSRPVLSFLWVEPAARRQGLARELLMALAQQFPGIGTSVTVPETFTPLFAAAGYTPLSLQQYEMTMDLADAKSA :: failed
